Measured growth of individual entries
Tested on: MDA-MB-231 breast
METHOD_DESCRIPTION: NCI-60 one-dose screen, 48 h (100 = growth as untreated, 0 = no growth, -100 = all killed)
APPLIED_CONDITIONS: 10 µM unless noted
The panel holds about 83,000 compounds, 20% with a hit somewhere; the sample as a whole holds those more often. Calls of active or inactive are those of the source. The calls were made as follows: active = growth percent below 10; inactive = the rest.

N/C(=N\O)c1ncc(-c2ccc(C(F)(F)F)cc2)c(NC2CCCCCC2)n1 | -66.3% [100 µM] (active)
Cc1c(C(N)=O)sc2ncn(CC(=O)NN=C3CCCCC3)c(=O)c12 | 103% (inactive)
Cc1ccc(NC(=O)c2cc(NCc3cc(O)ccc3O)ccc2O)cc1 | 78.5% (inactive)
COc1ccc(-c2cc(C(=O)Nc3ccc(Br)cc3)nc3[nH]c(=O)sc23)cc1 | 84.8% (inactive)

Prompt: Can you share its growth? I mean this compound: CC(C)c1ccc2c(c1)CCC1C2CCCC1(C)NCc1ccccc1 (stereo not given)
Completion: 39.8% (inactive)

Prompt: Can you share its growth? I mean this compound: "O=C(N/N=C/c1ccc([N+](=O)[O-])cc1)c1ccccc1Nc1ccnc(C(F)(F)F)c1"
Completion: 70.4% (inactive)

Prompt: Can you share its growth? I mean this compound: "CNC(=O)c1c(NC(=O)c2cccc(C(F)(F)F)c2)sc2c1CCC(=O)C2"
Completion: -41.2% (active)

Prompt: Can you share its growth? I mean this compound: CCCCCCCCCCCCC1CCC(=O)O1 (stereo not given)
Completion: 103% (inactive)

Prompt: Can you share its growth? I mean this compound: "O=c1c2cc(Br)cc(Br)c2nc(-c2ccc(Cl)cc2)n1/N=C/c1cccc(F)c1"
Completion: 46.1% (inactive)

Prompt: Can you share its growth? I mean this compound: "CN(C)c1ccc(C2(Cl)c3ccccc3N(C)c3ccccc32)cc1"
Completion: 69.1% (inactive)

====

Test system: 786-0 renal
METHOD_DESCRIPTION: NCI-60 one-dose screen, 48 h (100 = growth as untreated, 0 = no growth, -100 = all killed)
APPLIED_CONDITIONS: 10 µM unless noted
This is part of a sample that, as a whole, favours compounds with a hit. Of some 83,000 tested, about 20% had one in any assay. Active and inactive are the calls of the source. Rule for the calls: active = growth percent below 10; inactive = the rest.
MEASURE: growth

COc1ccccc1/C=C/C(=O)CCC(=O)O | 96.7% (inactive)

Prompt: Can you share its growth? I mean this compound: O=C(c1ccccc1)C1OC1C(=O)c1ccccc1 (stereo unspecified)
Completion: 15.1% (inactive)

Prompt: Can you share its growth? I mean this compound: "c1csc(-c2cnc3nonc3n2)c1"
Completion: 101% (inactive)

Prompt: Can you share its growth? I mean this compound: CC1OC(n2c3ccccc3c3c4c(c5c6ccccc6[nH]c5c32)C(=O)N(CCN[C@H]2CCC[C@@H]2N)C4=O)CC(O)C1O (stereo partly specified)
Completion: 50.2% (inactive)

Prompt: Can you share its growth? I mean this compound: CO[C@H](C(=O)[C@@H](O)[C@@H](C)O)[C@@H]1Cc2cc3cc(O[C@H]4C[C@@H](O[C@H]5C[C@@H](O)[C@H](O)C(C)O5)[C@H](O)C(C)O4)c(C)c(O)c3c(O)c2C(=O)[C@H]1O[C@H]1C[C@@H](O[C@H]2C[C@@H](O[C@H]3C[C@](C)(O)C(=O)C(C)O3)[C@@H](O)C(C)O2)[C@H](O)C(C)O1 (stereo partly specified)
Completion: 4.11% (active)

Prompt: Can you share its growth? I mean this compound: "O=C1NN(C(=O)c2ccccc2)C(c2ccc(Cl)c(Cl)c2)=C/C1=C\c1ccccc1[N+](=O)[O-]"
Completion: 31.1% [6.75 µM] (inactive)

Prompt: Can you share its growth? I mean this compound: "O=c1c2cc(Cl)ccc2oc2ccc(OCCCCCN3CCCCC3)cc12"
Completion: 35.4% (inactive)

Prompt: Can you share its growth? I mean this compound: "CCN(CC)CC(=O)Nc1c(C)ccc(N)c1C"
Completion: 93.4% (inactive)

Prompt: Can you share its growth? I mean this compound: CC(=O)OC[C@H]1O[C@@H](n2c(=O)cc(N)[nH]c2=O)C(OC(C)=O)[C@@H]1OC(C)=O (stereo partly specified)
Completion: 102% (inactive)

====

Test system: NCI-H23 lung
METHOD_DESCRIPTION: NCI-60 one-dose screen, 48 h (100 = growth as untreated, 0 = no growth, -100 = all killed)
APPLIED_CONDITIONS: 10 µM unless noted
The panel holds about 83,000 compounds, 20% with a hit somewhere; the sample as a whole holds those more often.
MEASURE: growth (%)
Give just the numeric value; % need not be written.

Prompt: # value lookup — system NCI-H23 lung, readout growth, item "CC(C)(CCc1ccccn1)C(=O)CCCc1ccccn1"
Completion: 106

====

Tested on: OVCAR-4 ovarian
METHOD_DESCRIPTION: NCI-60 one-dose screen, 48 h (100 = growth as untreated, 0 = no growth, -100 = all killed)
APPLIED_CONDITIONS: 10 µM unless noted
Compounds without any hit were thinned out: in the full panel of roughly 83,000, 20% have a hit.
MEASURE: growth (%)
Give just the numeric value; % need not be written.

O=C1/C(=C/c2cc(F)cc(F)c2)Cc2cc(F)cc(F)c21 | 110
O=C(CC(=O)c1cccc(Cl)c1)c1cccc(Cl)c1 | 42
CN1C(=O)C(C2=NNC(c3ccccc3C(=O)O)C2)C(=O)N(C)C1=O (stereo not drawn) | 99
CC(=O)Nc1c(Br)cc2c(c1Br)Cc1cc(Br)ccc1-2 | 9.85
NC(=O)c1ccc[n+](Cc2ccccc2)c1 | 102
COc1ccc(-c2nc3c(c(-c4ccc(Cl)cc4)nn3-c3ccccc3)c(-c3ccc(O)cc3)c2C#N)cc1 | 47.5
Cc1csc(N/N=C/c2ccncc2)n1 | 116

Prompt: Can you share its growth? I mean this molecule: "COc1ccc(C(=O)O)cc1.[Ag]"
Completion: 117

====

Test system: HCC-2998 colon
METHOD_DESCRIPTION: NCI-60 one-dose screen, 48 h
APPLIED_CONDITIONS: 10 µM unless noted
About 83,000 compounds went through this panel and 20% of them were active in at least one assay; those are over-represented in the sample as a whole. The source made the active and inactive calls. Rule for the calls: active = growth percent below 10; inactive = the rest.
One label from this list, please: Y for active, N for inactive

COc1cc(C2CC(c3ccc(Cl)cc3)=NN2C(C)=O)ccc1Oc1ccnc2cc(Cl)ccc12 (stereo not given) | N
C=CCN(CC#N)CC=C | N
O=C1c2cccc3cccc(c23)C(=O)N1CCCCCCCCCCN1C(=O)c2cccc3cccc(c23)C1=O | N
COc1cc(C2C(C#N)=C(N)Oc3cc4c(cc32)OCO4)cc2c1OCO2 (stereo not given) | N
COc1ccccc1/C=C/C(=O)CCC(=O)O | N

Prompt: Which outcome was assigned to "CS(=O)(=O)c1ccc(C(=O)N/N=C/c2cccc3ccccc23)cc1" in this test?
Completion: N

Prompt: Which outcome was assigned to "COc1cc(-c2nc(-c3ccc(-c4nc5ccc(F)cc5[nH]4)cc3)no2)cc(OC)c1OC" in this test?
Completion: N

Prompt: Which outcome was assigned to CCN1C(=O)C(C)C=C(C)C=C1C (stereo not given) in this test?
Completion: N

Prompt: Which outcome was assigned to "C=CCCCCOc1cccc(/C=C2\N=C3SCCCN3C2=O)c1" in this test?
Completion: N

Prompt: Which outcome was assigned to CC(NC(=O)c1ccccc1)C(=O)Nc1ccccc1 (stereo not given) in this test?
Completion: N

Prompt: Which outcome was assigned to "CC(C)(C)OC[C@@H]1N=C(c2ccc(Br)cc2)Nc2nc3ccccn3c2C1=O" in this test?
Completion: N

Prompt: Which outcome was assigned to "Fc1ccc(-c2nc(-c3ccc(-c4nc5ccc(F)cc5[nH]4)cc3)no2)cc1" in this test?
Completion: N

Prompt: Which outcome was assigned to CC(C)=CC[C@@H]1CC2(CC=C(C)C)C(=O)C(OC3(C(=O)c4ccccc4)C(=O)C4(CC=C(C)C)C[C@@H](CC=C(C)C)C(C)(C)C(CC=C(C)C)(C4=O)C3=O)(C(=O)c3ccccc3)C(=O)C(CC=C(C)C)(C2=O)C1(C)C (stereo not given in full) in this test?
Completion: N

====

Tested on: CCRF-CEM leukemia
METHOD_DESCRIPTION: NCI-60 one-dose screen, 48 h (100 = growth as untreated, 0 = no growth, -100 = all killed)
APPLIED_CONDITIONS: 10 µM unless noted
This is part of a sample that, as a whole, favours compounds with a hit. Of some 83,000 tested, about 20% had one in any assay.
Measured growth of individual entries
Give just the numeric value; % need not be written.

Previously resolved entries follow.
COC(=O)OC1C(O[C@H]2C[C@H]3[C@@H]4CC=C5C[C@@H](O)CC[C@]5(C)[C@H]4CC[C@]3(C)[C@H]2[C@H](C)C(=O)CCC(C)C)OCC(O)C1OC1OCC(O)C(O)C1OC(=O)c1ccc(OC)cc1 (stereo partly drawn) | -25.9
COc1ccc(Nc2nc(N)nc3c(=O)[nH]ccc23)cc1 | 83.9
O=C(Nc1cccc(N=Cc2c(O)ccc3ccccc23)c1)c1ccccc1 | 90.8
COc1cc(/C=C/c2cc(/C=C/c3ccc(O)c(OC)c3)n(C(=O)Nc3ccc(F)c(Cl)c3)n2)ccc1O | 0.872
COc1ccc2nc3cc(Cl)ccc3c(NC(=O)CSc3ccc(Cl)cc3)c2c1 | 1.21

Prompt: Can you share its growth? I mean this compound: "O=C(/C=C/c1ccccc1Br)c1cccc(OCCCCOc2cccc(C(=O)/C=C/c3ccccc3Br)c2)c1"
Completion: 88.5

Prompt: Can you share its growth? I mean this compound: "CCCCCCCOc1cccc(/C=C2\N=C3SCCCN3C2=O)c1"
Completion: 111

Prompt: Can you share its growth? I mean this compound: "COc1cc(OC)c2sc(-c3ccc(-n4cncc4-c4ccc(OC)c(N)c4)cc3)nc2c1"
Completion: 59.2
